The entries below are paired with their reported GI50.
System: COLO 205
Assay: NCI tumour cell line growth inhibition, 48 h
Calls of active or inactive are those of the source. Rule as the data show it: active = GI50 up to about 1.1 µM and inactive = higher.

Example cases with answers are listed next.
compound | GI50
NCCN1CCCCCc2ccccc21 | > 10 µM (inactive)
O=c1[nH]c(=S)[nH]n1C(=S)n1[nH]c(=S)[nH]c1=O | > 100 µM (inactive)
O=C1OC2C(O)COC2(O)C1(O)Cc1c[nH]c2ccccc12.O=C1OC2C(O)COC2(OCc2c[nH]c3ccccc23)C1O (configuration not stated) | > 100 µM (inactive)
COc1cccc2c1-c1c(OC)cccc1SS2 | 20 µM (inactive)
NNc1nnc(-c2ccccc2)nc1Cc1ccccc1 | 7.53 µM (inactive)
O=C1/C(=C/c2ccco2)NC(=S)N1CN1CCCCC1 | 51.4 µM (inactive)
CC(C)(C)Sc1nnc(SC(C)(C)C)c2c(SC(C)(C)C)nnc(O)c12 | 12.4 µM (inactive)
OCc1cc2c([nH]c3ccccc32)c(C(O)CO)n1 (configuration not stated) | > 100 µM (inactive)

### Prompt # return recorded GI50 for entry O=C1OC[C@@H]2Cc3c([nH]c4ccccc34)[C@@H](c3cc(O)c(O)c(O)c3)N12
### Response 23.4 µM (inactive)

### Prompt # return recorded GI50 for entry COc1ccc2c(c1)CCCN1CCc3ccccc3C21 (configuration not stated)
### Response 22.4 µM (inactive)

### Prompt # return recorded GI50 for entry COC1=C(C(=O)OC(C)(C)C)[C@]2(C)C(C(=O)OC(C)(C)C)C(OC)=C(C(=O)OC(C)(C)C)[C@]2(C)C1C(=O)OC(C)(C)C (some centres not stated)
### Response 60.4 µM (inactive)

### Prompt # return recorded GI50 for entry OC1CCC[C@@H]1Sc1ccccc1 (some centres not stated)
### Response > 100 µM (inactive)

### Prompt # return recorded GI50 for entry O=C1c2ccccc2C2CNC1(O)c1ccccc12 (configuration not stated)
### Response > 100 µM (inactive)

### Prompt # return recorded GI50 for entry CC1=C(NC(=O)C(=O)NNC(=O)c2ccncc2)C(=O)c2ccccc2C1=O
### Response 17.3 µM (inactive)

### Prompt # return recorded GI50 for entry CC1=NC(=N)N=C(C)C1/N=N/c1ccc2[nH]c(C)nc2c1 (configuration not stated)
### Response > 100 µM (inactive)

### Prompt # return recorded GI50 for entry C=C1C(=O)O[C@@]23C1CC[C@@H](C)C2CC[C@@]1(C)OC31 (some centres not stated)
### Response 1.86 µM (inactive)

### Prompt # return recorded GI50 for entry Cc1ccc(C2OC(COCc3ccc(Cl)cc3)C(OCc3ccc(Cl)cc3)C2O)cc1 (configuration not stated)
### Response 22.8 µM (inactive)

### Prompt # return recorded GI50 for entry COc1cc2c(cc1OCCCC(=O)Nc1cc(C(=O)Nc3cc(C(=O)Nc4cc(C(=O)NCCCN(C)C)n(C)n4)n(C)c3)n(C)c1)N=CC1CCCN1C2=O (configuration not stated)
### Response 21.2 µM (inactive)

Source listed as ChEMBL document CHEMBL1201862.
